The measurements presented in this section are drawn from patent US20250215072A1.

Target: T1, human LRRC33-proTGFβ1 complex (human, UniProt P01137 30-390; Q86YC3 19-650)
T1 construct: also called hLRRC33-proTGFβ1; hLRRC33
T1 sequence (P01137 30-390 limits assumed, chain 1 of 2): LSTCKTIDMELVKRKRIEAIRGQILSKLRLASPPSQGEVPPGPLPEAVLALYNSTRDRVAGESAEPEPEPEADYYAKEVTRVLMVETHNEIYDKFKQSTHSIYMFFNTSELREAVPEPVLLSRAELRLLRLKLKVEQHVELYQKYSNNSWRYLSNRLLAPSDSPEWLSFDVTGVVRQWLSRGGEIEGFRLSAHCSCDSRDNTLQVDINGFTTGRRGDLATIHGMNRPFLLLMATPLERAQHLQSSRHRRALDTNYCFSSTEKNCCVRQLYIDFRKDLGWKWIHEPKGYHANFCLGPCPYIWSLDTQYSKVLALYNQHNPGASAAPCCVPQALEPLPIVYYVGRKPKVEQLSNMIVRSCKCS
T1 sequence (Q86YC3 other isoform, or with tags, fused parts or gaps limits assumed, chain 2 of 2): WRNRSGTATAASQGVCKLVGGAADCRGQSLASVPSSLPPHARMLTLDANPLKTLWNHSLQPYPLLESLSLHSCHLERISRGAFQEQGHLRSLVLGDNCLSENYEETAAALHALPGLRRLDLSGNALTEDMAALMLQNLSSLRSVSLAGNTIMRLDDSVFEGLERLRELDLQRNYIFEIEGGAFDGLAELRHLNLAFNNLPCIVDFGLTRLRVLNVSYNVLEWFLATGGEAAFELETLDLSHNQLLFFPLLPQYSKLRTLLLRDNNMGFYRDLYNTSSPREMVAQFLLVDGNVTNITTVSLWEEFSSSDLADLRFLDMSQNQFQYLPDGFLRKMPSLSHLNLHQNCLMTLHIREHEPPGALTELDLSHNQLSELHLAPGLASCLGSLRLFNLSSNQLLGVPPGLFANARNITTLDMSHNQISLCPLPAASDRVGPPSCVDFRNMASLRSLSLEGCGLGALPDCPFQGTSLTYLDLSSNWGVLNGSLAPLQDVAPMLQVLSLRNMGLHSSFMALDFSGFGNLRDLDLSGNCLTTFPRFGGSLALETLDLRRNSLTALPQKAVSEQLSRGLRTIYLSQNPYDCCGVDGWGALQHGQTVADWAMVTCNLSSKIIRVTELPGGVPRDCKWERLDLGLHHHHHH
Experiment: BLI (Octet)
Experimental endpoint: Kd

Ab29 (antibody, IgG4, V domains shown) VH: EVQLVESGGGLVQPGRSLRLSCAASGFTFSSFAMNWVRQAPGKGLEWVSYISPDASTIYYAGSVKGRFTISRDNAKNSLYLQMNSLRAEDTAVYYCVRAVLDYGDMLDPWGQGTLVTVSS VL: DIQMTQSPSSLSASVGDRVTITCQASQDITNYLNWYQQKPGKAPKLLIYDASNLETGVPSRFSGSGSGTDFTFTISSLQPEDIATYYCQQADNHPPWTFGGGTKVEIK = 0.302 nM
Ab18 (antibody, V domains shown) VH: QVQLVESGGGVVQPGRSLRLSCAASGFTFSDYAMVWVRQAPGKGLEWVSAISGSGAATYFADSVKGRFTISRDNSKNTLYLQMNSLRAEDTAVYYCATVSSGHWDFDYWGQGTLVTVSS VL: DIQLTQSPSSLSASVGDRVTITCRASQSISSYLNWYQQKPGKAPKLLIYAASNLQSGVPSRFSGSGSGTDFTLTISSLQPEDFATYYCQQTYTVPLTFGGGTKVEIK = 1.02 nM

Next:
Query: Kd; subject: Ab12 (antibody, IgG4, V domains shown) VH: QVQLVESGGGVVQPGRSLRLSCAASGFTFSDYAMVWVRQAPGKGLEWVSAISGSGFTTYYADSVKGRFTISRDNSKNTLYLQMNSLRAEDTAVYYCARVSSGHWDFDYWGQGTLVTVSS VL: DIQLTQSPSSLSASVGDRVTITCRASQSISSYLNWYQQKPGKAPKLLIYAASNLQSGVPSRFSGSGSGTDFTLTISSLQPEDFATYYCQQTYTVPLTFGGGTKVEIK 0.775 nM
